# Tested on: Ramos cells
# Method: Caspase-8 and -3 processing by Western blot in Ramos cells
# Type: cell-based
# Condition Set: FIG. 1D
Attribute Measured: processing of caspase-8 and caspase-3

HGS-ETR2 (antibody, INN chains, looked up, V domains shown) VH: EVQLVQSGGGVERPGGSLRLSCAASGFTFDDYGMSWVRQAPGKGLEWVSGINWNGGSTGYADSVKGRVTISRDNAKNSLYLQMNSLRAEDTAVYYCAKILGAGRGWYFDLWGKGTTVTVSS VL: SSELTQDPAVSVALGQTVRITCQGDSLRSYYASWYQQKPGQAPVLVIYGKNNRPSGIPDRFSGSSSGNTASLTITGAQAEDEADYYCNSRDSSGNHVVFGGGTKLTVL
not

Provenance of the data: patent US20090325867A1
